List of growth inhibition values.
# Tested on: SUDIPGIV (diffuse intrinsic pontine glioma line)
# experimentalProtocol: growth inhibition (% activity, log2 RLU normalised to DMSO / staurosporine); higher = more growth inhibition
# experimentalConditions: 33 µM
readoutName: growth inhibition (%)

INSERT INTO measurements (molecule, readoutunits, resultnumber) VALUES
  ('CN1CCN(c2c(F)cc3c(=O)c(C(=O)O)cn(CCF)c3c2F)CC1', '%', 2.18),
  ('COc1ccccc1N1CCN(CCCNc2cc(=O)n(C)c(=O)n2C)CC1', '%', -1.07),
  ('O=S(=O)(O)Oc1ccc(C(c2ccc(OS(=O)(=O)O)cc2)c2ccccn2)cc1', '%', -2.15),
  ('C[C@@H](CN1CC(=O)NC(=O)C1)N1CC(=O)NC(=O)C1', '%', -0.536),
  ('COc1ccc(CN(CCN(C)C)c2ccccn2)cc1', '%', -2.03),
  ('CCOC(=O)c1c(CSc2ccccc2)n(C)c2cc(Br)c(O)c(CN(C)C)c12', '%', -4.36),
  ('CCCCCCNC(=O)n1cc(F)c(=O)[nH]c1=O', '%', 11.2),
  ('NCCNCCNCCNCCN', '%', 5.08),
  ('O=C(O)c1cc(-c2ccccc2)nc2ccccc12', '%', -1.08),
  ('Cc1onc(-c2ccccc2Cl)c1C(=O)N[C@@H]1C(=O)N2[C@@H]1SC(C)(C)[C@@H]2C(=O)O', '%', -0.916),
  ('Clc1ccc(C(c2ccccc2Cl)C(Cl)Cl)cc1 (stereo unspecified)', '%', -1.24),
  ('COc1cc(C(C)=O)ccc1OCCCN1CCC(c2noc3cc(F)ccc23)CC1', '%', 2.3),
  ('Nc1nc2ccc(OC(F)(F)F)cc2s1', '%', -0.776),
  ('CN(Cc1cnc2nc(N)nc(N)c2n1)c1ccc(C(=O)N[C@@H](CCC(=O)O)C(=O)O)cc1', '%', -0.562),
  ('CO[C@H]1C(=O)[C@]2(C)[C@@H](OC)C[C@H]3OC[C@@]3(OC(C)=O)[C@H]2[C@H](OC(=O)c2ccccc2)[C@]2(O)C[C@H](OC(=O)[C@H](O)[C@@H](NC(=O)OC(C)(C)C)c3ccccc3)C(C)=C1C2(C)C', '%', 22.5),
  ('CCOC(=O)n1ccn(C)c1=S', '%', -0.192),
  ('Nc1nc(N)c2nc(-c3ccccc3)c(N)nc2n1', '%', 3.03),
  ('COc1cnc(NS(=O)(=O)c2ccc(N)cc2)nc1', '%', -1.59),
  ('CC(C)(C)CC(C)(C)c1ccc(OCCOCC[N+](C)(C)Cc2ccccc2)cc1', '%', 47.1),
  ('CCOc1nc2cccc(C(=O)OCc3oc(=O)oc3C)c2n1Cc1ccc(-c2ccccc2-c2noc(=O)[nH]2)cc1', '%', -1.36),
  ('CCN1CC(CCN2CCOCC2)C(c2ccccc2)(c2ccccc2)C1=O (stereo unspecified)', '%', 3.42);
